Field: 24 h MTT CC10. Provide a value for each of the compounds that follow.
- Test system: A549 cells
- MEASUREMENT_PARAMETERS: human

Request: Write down 24 h MTT CC10 measured for item O=C(CSc1nc2ccccc2[nH]1)NCc1ccccc1
Result: >50 µM

Request: Write down 24 h MTT CC10 measured for item O=C(CSc1nc2ccccc2[nH]1)NCc1ccccn1
Result: >50 µM

Request: Write down 24 h MTT CC10 measured for item NC(=O)CSc1nc2ccccc2[nH]1
Result: >50 µM

Request: Write down 24 h MTT CC10 measured for item Brc1ccc(CSc2nc3ccccc3[nH]2)nc1
Result: 37.461 µM

Request: Write down 24 h MTT CC10 measured for item O=C(CSc1nc2ccccc2[nH]1)NC1CCCCC1
Result: >50 µM

Request: Write down 24 h MTT CC10 measured for item CCn1c(SCC(=O)Nc2ccc(Br)cn2)nc2ccccc21
Result: 47.499 µM

Request: Write down 24 h MTT CC10 measured for item Cc1ccc(NC(=O)CSc2nc3ccccc3[nH]2)nc1 [Compound 20]
Result: 7.855 µM

Request: Write down 24 h MTT CC10 measured for item Cc1cccc2[nH]c(SCC(=O)Nc3ccc(Br)cn3)nc12
Result: 0.683 µM

Request: Write down 24 h MTT CC10 measured for item O=C(C[S+]([O-])c1nc2ccccc2[nH]1)Nc1ccc(Br)cn1 (stereo not drawn)
Result: 31.074 µM

Request: Write down 24 h MTT CC10 measured for item O=C(CS(=O)(=O)c1nc2ccccc2[nH]1)Nc1ccc(Br)cn1
Result: 23.361 µM

Request: Write down 24 h MTT CC10 measured for item O=C(CSc1nc2ccccc2[nH]1)Nc1ccc(F)cn1
Result: 31.688 µM

Request: Write down 24 h MTT CC10 measured for item O=C(CSc1nc2ccccc2[nH]1)Nc1ccc(Br)cc1
Result: >50 µM

Request: Write down 24 h MTT CC10 measured for item Cc1ccc(NC(=O)CCC2=Nc3ccccc3C2)nc1
Result: 7.382 µM

Request: Write down 24 h MTT CC10 measured for item COc1ccc(C2C(CC(C)C(=O)Nc3ccc(Br)cn3)=Cc3ccccc32)cc1 (stereo not drawn)
Result: 15.941 µM

Request: Write down 24 h MTT CC10 measured for item COc1ccc(NC(=O)CSc2nc3ccccc3[nH]2)nc1
Result: 4.69 µM

Request: Write down 24 h MTT CC10 measured for item COc1ccc2[nH]c(SCC(=O)Nc3ccc(Br)cn3)nc2c1
Result: 7.52 µM

Request: Write down 24 h MTT CC10 measured for item C=CCn1c(SCC(=O)Nc2ccc(Br)cn2)nc2ccccc21
Result: 18.984 µM

Request: Write down 24 h MTT CC10 measured for item O=C(CSc1nc2ccccc2[nH]1)Nc1ccccn1
Result: >50 µM

Request: Write down 24 h MTT CC10 measured for item Cc1ccc(NC(=O)CSc2nc3ccccc3[nH]2)nc1 [Compound 24]
Result: 5.552 µM

Request: Write down 24 h MTT CC10 measured for item O=C(CSc1nc2cc(F)ccc2[nH]1)Nc1ccc(Br)cn1
Result: 2.905 µM

Request: Write down 24 h MTT CC10 measured for item Cn1c(SCC(=O)Nc2ccc(Br)cn2)nc2ccccc21
Result: 1.417 µM

====

Field: CC50. Provide a value for each of the compounds that follow.
- System: A549 cells
- MEASUREMENT_PARAMETERS: human

Request: Write down CC50 measured for item Cc1ccc2[nH]c(SCC(=O)Nc3ccc(Br)cn3)nc2c1
Result: 49.7 µM

Request: Write down CC50 measured for item COc1ccc(C2C(CC(C)C(=O)Nc3ccc(Br)cn3)=Cc3ccccc32)cc1 (centres unmarked)
Result: > 50 µM

Request: Write down CC50 measured for item Cc1ccc(NC(=O)CCc2nc3ccccc3o2)nc1
Result: > 50 µM

Request: Write down CC50 measured for item Cc1ccc(NC(=O)CSc2nc3ccccc3[nH]2)nc1
Result: > 50 µM

Request: Write down CC50 measured for item Cc1ccc(NC(=O)CCC2=Nc3ccccc3C2)nc1
Result: > 50 µM

====

- Test system: A/WSN/33
- EXPERIMENT: microbe, parasite or virus in culture
- Format: cell-based, influenza virus
- MEASUREMENT_PARAMETERS: unidentified influenza virus, WSN, A549, 24 h, read-out: WSN IC90, A549 cells, A/WSN/33 MOI 0.01, 24 h post infection, NP-positive cells
MEASUREMENT_KIND: IC90

Request: Answer briefly: IC90 recorded on A/WSN/33 for O=C(C[S+]([O-])c1nc2ccccc2[nH]1)Nc1ccc(Br)cn1 (stereo not shown)
Result: > 50 µM

Request: Answer briefly: IC90 recorded on A/WSN/33 for O=C(CS(=O)(=O)c1nc2ccccc2[nH]1)Nc1ccc(Br)cn1
Result: > 50 µM

Request: Answer briefly: IC90 recorded on A/WSN/33 for O=C(CSc1nc2ccccc2[nH]1)Nc1ccc(Br)cn1
Result: 16.9 µM

Request: Answer briefly: IC90 recorded on A/WSN/33 for COc1ccc(NC(=O)CSc2nc3ccccc3[nH]2)nc1
Result: 45.4 µM

====

- Test system: A/WSN/33
- EXPERIMENT: microbe, parasite or virus in culture
- Type: cell-based, influenza virus
- MEASUREMENT_PARAMETERS: unidentified influenza virus, WSN, A549, 24 h, read-out: WSN IC50, A549 cells, A/WSN/33 MOI 0.01, 24 h post infection, NP-positive cells
IC50 under 30 µM gets Yes, anything at or over 30 µM gets No.

Request: Regarding O=C(CS(=O)(=O)c1nc2ccccc2[nH]1)Nc1ccc(Br)cn1 [Compound 6] , kindly confirm whether its IC50 is beneath 30 µM.
Result: Yes

Request: Regarding O=C(CSc1nc2ccccc2[nH]1)Nc1ccc(F)cn1 [Compound 22] , kindly confirm whether its IC50 is beneath 30 µM.
Result: No

Request: Regarding Cc1cccc2[nH]c(SCC(=O)Nc3ccc(Br)cn3)nc12 [Compound 3] , kindly confirm whether its IC50 is beneath 30 µM.
Result: Yes

Request: Regarding Brc1ccc(CSc2nc3ccccc3[nH]2)cc1 [Compound 17] , kindly confirm whether its IC50 is beneath 30 µM.
Result: No

Request: Regarding NC(=O)CSc1nc2ccccc2[nH]1 [Compound 5] , kindly confirm whether its IC50 is beneath 30 µM.
Result: No

Request: Regarding Cc1ccc2[nH]c(SCC(=O)Nc3ccc(Br)cn3)nc2c1 [Compound 26] , kindly confirm whether its IC50 is beneath 30 µM.
Result: Yes

Request: Regarding COc1ccc(C2C(CC(C)C(=O)Nc3ccc(Br)cn3)=Cc3ccccc32)cc1 (stereo not shown) [Compound 14] , kindly confirm whether its IC50 is beneath 30 µM.
Result: No

Request: Regarding Brc1ccc(CSc2nc3ccccc3[nH]2)nc1 [Compound 23] , kindly confirm whether its IC50 is beneath 30 µM.
Result: No

====

Field: CC50. Provide a value for each of the molecules that follow.
- EXPERIMENT: in vitro
- MEASUREMENT_PARAMETERS: human

Request: Write down CC50 measured for item C=CCn1c(SCC(=O)Nc2ccc(Br)cn2)nc2ccccc21 [Compound 19]
Result: > 50 µM

Request: Write down CC50 measured for item O=C(CSc1nc2ccccc2[nH]1)NCc1ccccn1 [Compound 8]
Result: > 50 µM

Request: Write down CC50 measured for item O=C(CSc1nc2cc(F)ccc2[nH]1)Nc1ccc(Br)cn1 [Compound 27]
Result: > 50 µM

Request: Write down CC50 measured for item O=C(CSc1nc2ccccc2[nH]1)Nc1ccc(F)cn1 [Compound 22]
Result: > 50 µM

Request: Write down CC50 measured for item COc1ccc2[nH]c(SCC(=O)Nc3ccc(Br)cn3)nc2c1 [Compound 28]
Result: > 50 µM

====

- System: A549 cells
- MEASUREMENT_PARAMETERS: human
Field: 24 h MTT CC10. Provide a value for each of the compounds that follow.
// note: answer is a bare numeric in µM

Request: Write down 24 h MTT CC10 measured for item Cc1ccc2[nH]c(SCC(=O)Nc3ccc(Br)cn3)nc2c1
Result: 6.797

Request: Write down 24 h MTT CC10 measured for item Brc1ccc(CSc2nc3ccccc3[nH]2)cc1
Result: 19.818

====

- System: A/WSN/33
- EXPERIMENT: microbe, parasite or virus in culture
- Format: cell-based, influenza virus
- MEASUREMENT_PARAMETERS: unidentified influenza virus, WSN, A549, 24 h, read-out: WSN IC90, A549 cells, A/WSN/33 MOI 0.01, 24 h post infection, NP-positive cells
Field: IC90. Provide a value for each of the compounds that follow.

Request: Write down IC90 measured for item O=C(CSc1nc2ccccc2[nH]1)NCc1ccccn1
Result: > 50 µM

Request: Write down IC90 measured for item O=C(CSc1nc2cc(F)ccc2[nH]1)Nc1ccc(Br)cn1
Result: 18.2 µM

Request: Write down IC90 measured for item Cc1cccc2[nH]c(SCC(=O)Nc3ccc(Br)cn3)nc12
Result: 10 µM

Request: Write down IC90 measured for item O=C(CSc1nc2ccccc2[nH]1)Nc1ccc(Br)cc1
Result: > 50 µM

Request: Write down IC90 measured for item O=C(CSc1nc2ccccc2[nH]1)Nc1ccc(F)cn1
Result: > 50 µM
